- target.system: T1, human PD-L1 protein (coated antigen) (human, UniProt Q9NZQ7 19-238, limits assumed)
- T1 construct: Construct not described; also called PD-L1 antigen; antigenic protein PD-L1
- T1 sequence (Q9NZQ7 19-238 limits assumed): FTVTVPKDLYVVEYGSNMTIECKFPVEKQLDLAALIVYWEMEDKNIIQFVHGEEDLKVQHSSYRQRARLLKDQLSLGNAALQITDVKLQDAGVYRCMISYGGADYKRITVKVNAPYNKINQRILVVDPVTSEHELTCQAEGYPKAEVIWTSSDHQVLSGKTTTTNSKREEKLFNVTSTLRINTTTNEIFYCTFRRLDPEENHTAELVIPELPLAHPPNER
- protocol: ELISA, purified nanobody 10 ug/mL on coated PD-L1, anti-HA detection
property.name: ELISA absorbance (A405 nm)
Quick note: give the figure in A405 nm, leave out the unit.

* SEQ ID NO 8 (VHH, pMECS-expressed; also called anti-PD-L1 nanobody No. 8; VHH numbered 8) VHH: QVQLQESGGDSVQAGGSLRLACKVPGFTSNTCAMAWFRQAPGKEREFVSSISTGGTTGYAESAKGRFTLSKDEAKDTVYLQMNSLKPEDTAMYFCKSYACRTCIGRYCRTAPDAWGQGTQVTVSS | 3.37

Turning to the following binder.
// Input: SEQ ID NO 6 (VHH, pMECS-expressed; also called anti-PD-L1 nanobody No. 6; VHH numbered 6) VHH: QVQLQESGGGSVQAGETLRLSCTASGDTFDASGVGWFRQVSGNECDLVSSINRDGTTYYAPSVAGRFTMSQNNAKNTVYLQMNSLKPDDTAVYYCATDPAVGIVVRSTCRGPFGYWGQGTQVTVSS . Output its ELISA absorbance (A405 nm) only.
3.44
